# assay.system: GST-hRIPK1 (8-327) (Homo sapiens (Human))
# Sequence (Q13546 8-327): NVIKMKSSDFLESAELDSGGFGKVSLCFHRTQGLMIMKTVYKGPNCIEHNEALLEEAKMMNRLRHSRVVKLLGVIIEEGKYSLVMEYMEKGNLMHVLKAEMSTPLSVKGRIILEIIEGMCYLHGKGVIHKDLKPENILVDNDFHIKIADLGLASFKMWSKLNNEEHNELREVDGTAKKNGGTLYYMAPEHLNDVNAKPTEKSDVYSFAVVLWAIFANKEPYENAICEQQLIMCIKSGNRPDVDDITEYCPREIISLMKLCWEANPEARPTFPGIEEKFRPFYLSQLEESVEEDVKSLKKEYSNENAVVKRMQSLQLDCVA
# test.protocol: Fluorescent Polarization Binding (FP Binding) assay
pIC50: −log10 of the molar value.
Entries and their measured pIC50 follow.

In the examples that follow, each entry is paired with its recorded pIC50.
> print(dat)
                                    molecule  test.readout  reported.measurement
 1  CN1C(=O)[C@H](NC(=O)c2nn(Cc3ccccc3)cc2F)CCc2nn(C)cc21 [Example 109B]         pIC50                < 5.52
 2  CN1C(=O)[C@@H](NC(=O)c2nn(Cc3ccc(F)cc3)cc2F)[C@H]2C[C@H]2c2cccnc21 [Example 156B]         pIC50         6.00 to 10.00
 3  O=C(N[C@H]1CC2(CC2)c2cccnc2NC1=O)c1nnc(Cc2ccccc2)[nH]1 [Example 98B]         pIC50         6.00 to 10.00
 4  CN1C(=O)[C@@H](NC(=O)c2nn(Cc3ccccc3)cc2F)CCc2nn(C)cc21 [Example 109A]         pIC50         6.00 to 10.00
 5  N#Cc1cccc(Cc2nnc(C(=O)N[C@H]3C(=O)Nc4c(F)cc(F)cc4[C@H]4C[C@H]43)[nH]2)c1 [Example 181A]         pIC50                < 5.52
 6  CN1C(=O)[C@@H](NC(=O)c2nn(Cc3cnn(C)c3)cc2F)COc2cccnc21 [Example 184]         pIC50         6.00 to 10.00
 7  CN1C(=O)[C@@H](NC(=O)c2nnc(Cc3cccc(C#N)c3)[nH]2)COc2cccnc21 [Example 161]         pIC50         6.00 to 10.00
 8  CN1C(=O)[C@@H](NC(=O)c2nnc(C3(c4ccccc4)CC3)[nH]2)COc2ccccc21 [Example 35]         pIC50         6.00 to 10.00
 9  C[C@H]1Oc2cccnc2N(C)C(=O)[C@H]1NC(=O)c1ncn(Cc2ccccc2)n1 [Example 136]         pIC50         6.00 to 10.00
10  CN1C(=O)[C@@H](NC(=O)c2nn(Cc3cccc(F)c3)cc2F)COc2cccnc21 [Example 135]         pIC50         6.00 to 10.00

Please supply the value of reported pIC50 for the item C[C@H]1Oc2cccnc2N(C)C(=O)[C@H]1NC(=O)c1nnc(Cc2ccccc2)[nH]1 [Example 94]
6.00 to 10.00

Consider the molecule CN1C(=O)[C@@H](NC(=O)c2nnc(Cc3ccccc3)o2)CCc2nccnc21 [Example 190] and give its recorded pIC50.
6.00 to 10.00

Tell us which pIC50 value is on record for CN1C(=O)[C@H](NC(=O)c2nnc(Cc3ccccc3)o2)C2(CC2)Oc2cccnc21 [Example 160B]
< 5.52

Report pIC50, nothing else, for this molecule: [2H]C([2H])([2H])N1C(=O)[C@@H](NC(=O)c2nn(Cc3ccccc3)cc2F)[C@H]2C[C@H]2c2cc(C#N)ccc21 [Example 206]
6.00 to 10.00

Read the entry CN1C(=O)[C@@H](NC(=O)C2CN(Cc3ccccc3)C2)COc2ccccc21 [Example 33] and write its reported pIC50.
< 5.00

Write down pIC50 measured for item CN1C(=O)[C@@H](NC(=O)c2cc(C#N)n(Cc3ccc(F)cc3)n2)COc2cccnc21 [Example 159]
6.00 to 10.00

Given the molecule O=C(N[C@H]1COc2cccnc2NC1=O)c1nn(Cc2ccccc2)cc1F [Example 57] , write its reported pIC50.
6.00 to 10.00

Please report the measured pIC50 for C[C@H]1Oc2cccnc2N(C)C(=O)[C@H]1NC(=O)c1cnn(Cc2ccccc2)n1 [Example 204]
6.00 to 10.00

Specify pIC50 for CN1C(=O)[C@@H](NC(=O)c2nnc(Cc3ccccc3)[nH]2)CC2(CC2)c2cccnc21 [Example 125B] and stop.
6.00 to 10.00

# return recorded pIC50 for input Cc1cnn2c1N(C)C(=O)[C@@H](NC(=O)c1nnc(Cc3ccccc3)[nH]1)CC2 [Example 131A]
6.00 to 10.00

Hello, please tell me recorded pIC50 for this one: CN1C(=O)[C@@H](NC(=O)c2nn(Cc3ccccc3F)cc2F)COc2cccnc21 [Example 133]
6.00 to 10.00

Tell me pIC50 reported for C[C@H]1Oc2cccnc2N(C)C(=O)[C@H]1NC(=O)c1cc(Oc2ccccc2F)ccn1 [Example 117]
6.00 to 10.00

The measurements presented in this section are drawn from patent US10604535B2.
